- TEST SUMMARY: Pseudo-first-order Rate constant for hydrolysis at pH 10
- Format: ADME
- TEST SETTINGS: buffer
READOUT TYPE: k (h⁻¹)
Numeric answer only, unit h⁻¹ assumed.

Here's what some known entries look like.
COMPOUND	MEASUREMENT
N[C@@H](C(=O)N[C@@H]1C(=O)N2C(C(=O)O)=C(Cl)CS[C@H]12)c1ccccc1.O	0.944
CC(=O)OCC1=C(C(=O)O)N2C(=O)[C@@H](NC(=O)Cc3cccs3)[C@H]2SC1	0.317
CC1(C)S[C@@H]2[C@H](NC(=O)COc3ccccc3)C(=O)N2[C@H]1C(=O)O	0.248
C[C@H]1[C@H](NC(=O)/C(=N\OC(C)(C)C(=O)O)c2csc(N)n2)C(=O)N1S(=O)(=O)O	0.4
CC(C)(O/N=C(\C(=O)N[C@@H]1C(=O)N2C(C(=O)[O-])=C(C[n+]3ccccc3)CS[C@H]12)c1csc(N)n1)C(=O)O	1.3

Kindly consider the entry below.
q: Which k reading was recorded for the compound CC1=C(C(=O)O)N2C(=O)[C@@H](NC(=O)[C@H](N)c3ccccc3)[C@H]2SC1 [CEPHALEXIN ANHYDROUS] ?
a: 0.0685
